Overview of recorded IC50 for various compounds
Tested on: MDA-MB231
Assay: Cell viability (MTT) assay, 24-h IC50, MDA-MB231
Assay type: cell-based, human
Settings: MDA-MB231 breast cancer cells, 24 h; read-out: 24-h IC50
parameter measured: IC50 (µM)

compound: CCOP1(=O)OCC(COC(=O)c2ccccc2OC(C)=O)O1 (centres unmarked) [Glycero-phospho-aspirin I]
unit of measure: µM
reading: 199
//
compound: CCOP(=O)(OCC)OCC(COC(=O)c1ccccc1OC(C)=O)OP(=O)(OCC)OCC (centres unmarked) [Glycero-phospho-aspirin II]
unit of measure: µM
reading: 360

----------
Test system: MIA-PaCa-2
Test: Cell viability (MTT) assay, 24-h IC50, MIA-PaCa-2
Type: cell-based, human
Conditions: Homo sapiens, MIA PaCa-2, 24 h, read-out: IC50 (growth of human cancer cells)
parameter measured: IC50 (µM)

cpd smiles: CCCC(CCC)C(=O)Oc1ccc(COP(=O)(OCC)OCC)cc1
reading: 89

----------
System: MDA-MB 231 human breast cancer cells
Assay: Annexin V and propidium iodide staining in MDA-MB231
Assay type: cell-based
Details: MDA-MB231, compound at its IC50, 24 h; % of entire cell population (control 2.0)
Define the label as T when Late apoptosis (%) is strictly less than 20% and as F in all remaining cases.

compound: CCOP(=O)(OCC)OCCCCOC(=O)CC1=C(C)/C(=C/c2ccc([S+](C)[O-])cc2)c2ccc(F)cc21 (stereo not drawn)
label class: T
--
compound: CCOP(=O)(OCC)OCCCCOC(=O)C(C)c1ccc(CC(C)C)cc1 (stereo not drawn)
label class: F
--
compound: CCOP(=O)(OCC)OCCCCOC(=O)CC1=C(C)/C(=C/c2ccc(SC)cc2)c2ccc(F)cc21
label class: F
--
compound: CCOP(=O)(OCC)OCC(COC(=O)c1ccccc1OC(C)=O)OP(=O)(OCC)OCC (stereo not drawn)
label class: T
--
compound: CCOP1(=O)OCC(COC(=O)c2ccccc2OC(C)=O)O1 (stereo not drawn)
label class: T
--
compound: CCOP(=O)(OCC)OCCCCOC(=O)C(C)c1ccc(-c2ccccc2)c(F)c1 (stereo not drawn)
label class: F

----------
Listed next: entries and their corresponding IC50.
System: MDA-MB231
Assay: Cell viability (MTT) assay, 24-h IC50, MDA-MB231
Type: cell-based, human
Details: Homo sapiens, MDA-MB-231; MDA-MB231 breast cancer cells, 24 h; read-out: 24-h IC50

compound: CC(C)Cc1ccc(C(C)C(=O)O)cc1 (stereo not shown) [Ibuprofen, ibuprofen, reference compound]
experimental target: MDA-MB231
relational operator: =
IC50, µM: 748
--
compound: CC1=C(CC(=O)O)c2cc(F)ccc2C1=Cc1ccc([S+](C)[O-])cc1 (stereo not shown) [Sulindac, reference compound]
experimental target: MDA-MB231
relational operator: =
IC50, µM: 530
--
compound: CC(C(=O)O)c1ccc(-c2ccccc2)c(F)c1 (stereo not shown) [Flurobiprofen, flurbiprofen, reference compound]
experimental target: MDA-MB231
relational operator: =
IC50, µM: 823
--
compound: CC(=O)Oc1ccccc1C(=O)O [Aspirin, acetylsalicylic acid, reference compound]
experimental target: MDA-MB231
relational operator: >
IC50, µM: 2000

----------
Here, each record is paired with measured pIC50 data.
Tested on: BxPC-3
Assay: Cell viability (MTT) assay, 24-h IC50, BxPC-3
Conditions: read-out: 24-h IC50; BxPC-3 pancreatic cancer cells, 24 h
pIC50: −log10 of the molar value.

compound: CCOP(=O)(OCC)OCC(COC(=O)c1ccccc1OC(C)=O)OP(=O)(OCC)OCC (centres unmarked) [Glycero-phospho-aspirin II]
experimental target: BxPC-3
pIC50: 4.42
//
compound: CCOP1(=O)OCC(COC(=O)c2ccccc2OC(C)=O)O1 (centres unmarked) [Glycero-phospho-aspirin I]
experimental target: BxPC-3
pIC50: 4.20
